# targetDesc: T1, Lsb1, P53281
# T1 sequence (P53281 45-122, looked up): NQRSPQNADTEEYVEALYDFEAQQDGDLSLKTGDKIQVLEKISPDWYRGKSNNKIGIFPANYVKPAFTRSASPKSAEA
# runDescription: SPOT array
# particulars: median of control spots 388
Documented SPOT intensity across a set of binders
valueKind: SPOT intensity

>>> print(df.to_string())
            binder       valuekind  quantitativeresult
0  KKAPPPVVKPKPRNF  SPOT intensity                   4
1  PPLPRAPPVPPATFE  SPOT intensity                   7
2  GAGERPRLVPRPINV  SPOT intensity                  18
3  PHNPSPFFPPPDFND  SPOT intensity                   0
4  MFLISPPASPPPEFD  SPOT intensity                   0
5  LKRITSPPLPPRADS  SPOT intensity                 892
6  VDFTLPPPPPPPGLD  SPOT intensity                   0
